Cited source: the supplement of paper PMC10567573

# Assay Details: protein stability index of a GFP-peptide fusion (GPS, HEK-293T) (PSI 1-6); higher = more stable;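 further: 24-mer peptide tiles fused after GFP, lentivirally expressed, FACS-sorted into six equal bins by GFP/DsRed ratio, decoded by Illumina sequencing, PSI is the read-weighted mean bin number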
# Condition Summary: treatment: MLN4924 1 uM, 8 h; c terminus: a fixed tail appended
Test Readout: protein stability index

{"columns": ["Residues", "Test Readout", "Obs Value"],
 "data": [
  ["RRRPRQKEAGLSQSHDDLSNATAT [C2CD2L]", "protein stability index", 5.26],
  ["YSHLAYNNYRLGGNPSTNSRVTAS [SMARCE1]", "protein stability index", 3.35]
]}

Q. I am curious: what protein stability index value has been reported for ICTRKPEEIRGGGLLKYCSLLVHG [TENT5D] ?
A. 2.03

Q. Would you mind telling me what protein stability index value was observed for QGIYEEYEDIRRENPVGTFHCSMS [PTPN9] ?
A. 3.98

Q. Could you share which protein stability index value was measured for EKLITWLNKELNENQLVRKQDVLG [SASS6] ?
A. 3.1

Q. Need protein stability index, item LMSAQTITSETTSTTTTTHITKTV [EPB41L3]
A. 4.68

Q. Requested field: protein stability index. Item: FNSTYNARVKAFNKTGVSPYSKTL [TRIM9]
A. 2.85

Q. Query: protein stability index; subject: EQQTMDNLEKQLICPICLEMFTKP [TRIM55]
A. 4.14

Q. Looking for the measured protein stability index of TTRHGEVGSALHRESFTSRQKTSG [C10orf62] , can you help?
A. 4.78
